assay: folding stability dG unfold (combined trypsin and chymotrypsin); higher = more stable
OBSERVATION_TYPE: folding stability dG unfold (kcal/mol)

[[record]]
sequence_entry = "SAGGMVVTSESREPDGTWTVRTVYRDPAGNLTITSSSTSSATVTRKDSAGTPSTAASTTNTYTSAALSAGGS [r8_270_JUSTAS]"
value_unit = "kcal/mol"
comparative_sign = "="
value_observed = -0.281

[[record]]
sequence_entry = "SAGGTELAERIRAMGGFEVVEIKEGEGKPKVTVRTPDPALAEELRAFLAADPRVESVELEELSPELKSAGGS [r16_671_JUSTAS]"
value_unit = "kcal/mol"
comparative_sign = "<"
value_observed = -1

[[record]]
sequence_entry = "SAGVRYLVATGEDGATVVVPVPAETEEEAEEKAEELARELAERFPGARFVPVPVEEPELPPVEALPGVESAG [r5_950_TrMRF]"
value_unit = "kcal/mol"
comparative_sign = "="
value_observed = -0.46

[[record]]
sequence_entry = "SAGGGSMAASSVTSEEKPLPDGSSLSIPEITRPDNVATLTVEYYDPKTGTKYTFTLTIPISPDDTVTLSAGG [r13_190_JUSTAS]"
value_unit = "kcal/mol"
comparative_sign = "="
value_observed = 1.99

[[record]]
sequence_entry = "SAGPNKPYKIRVSIMHPGKWREHEIDIDPGEDIEEALDEIMDKLPPNWMIMIHYANGEMIMIPIPPEMISAG [r5_77_TrROS]"
value_unit = "kcal/mol"
comparative_sign = "="
value_observed = 2.11


Data origin: the supplement of paper PMC12764529
